Biological target: MMP2 (Homo sapiens, UniProt P08253)
Assay: Fluorometric enzyme inhibition assay with fluorogenic substrate Mca-Lys-Pro-Leu-Gly-Leu-Dpa-Ala-Arg-NH2 (MMP2)
Format: biochemical
Conditions: 50 μM compound; enzyme 1 nM; mean of three assays
experimental.readout: inhibition at 50 µM (%)

| entry.smiles | inhibition at 50 µM / % |
| --- | --- |
| NCCCOc1ccc(C[C@H](NS(=O)(=O)c2ccc(-c3ccccc3)cc2)C(=O)NO)cc1 | 100 |

A = O=C(NO)[C@H](Cc1ccc(O)cc1)NS(=O)(=O)c1ccc(-c2ccccc2)cc1
B = N=C(N)NCCCOc1ccc(C[C@H](NS(=O)(=O)c2ccc(-c3ccccc3)cc2)C(=O)O)cc1
Please let me know which one, A or B , has a lower measured inhibition at 50 µM value. Could you answer with the label of the item you picked? B
(B: 41%, A: 100%)

###

Target: MMP9 (Homo sapiens, UniProt P14780)
Test: Fluorometric enzyme inhibition assay with fluorogenic substrate Mca-Lys-Pro-Leu-Gly-Leu-Dpa-Ala-Arg-NH2 (MMP9)
Format: biochemical
Settings: 50 μM compound; enzyme 1 nM; mean of three assays
experimental.readout: inhibition at 50 µM (%)

Examples with their reported inhibition at 50 µM follow.
| entry.smiles | endpoint.value |
| --- | --- |
| N=C(N)NCCCOc1ccc(C[C@H](NS(=O)(=O)c2ccc(-c3ccccc3)cc2)C(=O)O)cc1 | 0 |
| NCCCOc1ccc(C[C@H](NS(=O)(=O)c2ccc([N+](=O)[O-])cc2)C(=O)O)cc1 | 0 |

1 = NCCCOc1ccc(C[C@H](NS(=O)(=O)c2ccc(-c3ccccc3)cc2)C(=O)O)cc1
2 = NCCCOc1ccc(C[C@H](NS(=O)(=O)c2ccc(-c3ccccc3)cc2)C(=O)NO)cc1
3 = N=C(N)NCCCOc1ccc(C[C@H](NS(=O)(=O)c2ccccc2)C(=O)NO)cc1
Rank ascending by inhibition at 50 µM. Give your ranking as a list of the labels in the requested order. 1, 3, 2

A = N=C(N)NCCCOc1ccc(C[C@H](NS(=O)(=O)c2ccccc2)C(=O)O)cc1
B = O=C(NO)[C@H](Cc1ccc(O)cc1)NS(=O)(=O)c1ccc(-c2ccccc2)cc1
Compare reported inhibition at 50 µM values for A and B . Which is lower? Could you answer with the label of the item you picked? A
(A: 0%, B: 73%)

###

Target: purified human integrin proteins αvβ3 (Homo sapiens, UniProt P05106+P06756)
Construct: purchased Sino Biological Europe GmbH, Eschborn, Germany
Experiment: Solid-phase integrin binding assay (competition with biotinylated vitronectin)
Conditions: at 1 μM; read-out: Inhibition % of biotinylated vitronectin specific binding to αvβ3
experimental.readout: inhibition at 1 µM (%)

Consider the following illustrative entries.
| entry.smiles | experimental.system | inhibition at 1 µM, % |
| --- | --- | --- |
| O=C(NO)[C@H](Cc1ccc(O)cc1)NS(=O)(=O)c1ccc(-c2ccccc2)cc1 | purified human integrin proteins αvβ3 (Homo sapiens, UniProt P05106+P06756) | 12 |
| N=C(N)NCCCOc1ccc(C[C@H](NS(=O)(=O)c2ccc(-c3ccccc3)cc2)C(=O)O)cc1 | purified human integrin proteins αvβ3 (Homo sapiens, UniProt P05106+P06756) | 1 |
| N=C(N)NCCCOc1ccc(C[C@H](NS(=O)(=O)c2ccccc2)C(=O)NO)cc1 | purified human integrin proteins αvβ3 (Homo sapiens, UniProt P05106+P06756) | 0 |

A = NCCCOc1ccc(C[C@H](NS(=O)(=O)c2ccc(-c3ccccc3)cc2)C(=O)NO)cc1
B = NCCCOc1ccc(C[C@H](NS(=O)(=O)c2ccc([N+](=O)[O-])cc2)C(=O)O)cc1
Param metric = inhibition at 1 µM; output whichever of A , B has the minimum value. The response must carry the label of the picked entry. B
(B: 0%, A: 41%)

1 = NCCCOc1ccc(C[C@H](NS(=O)(=O)c2ccc(-c3ccccc3)cc2)C(=O)O)cc1
2 = N=C(N)NCCCOc1ccc(C[C@H](NS(=O)(=O)c2ccccc2)C(=O)O)cc1
Which item exceeds the other in inhibition at 1 µM, 1 or 2 ? # answer = label of selected item 1
